meta.source: patent US7811797B2

test system: α-isomaltosylglucosaccharide-forming enzyme; experiment: Transfer-acceptor specificity, Enzyme of Strain N75; format: biochemical, Bacillus globisporus N75; design: key: −: no saccharide-transferred product was detected through transfer reaction to acceptor; ∀: a saccharide-transferred product was detected in an amount less than one percent through transfer reaction to acceptor; +: a saccharide-transferred product was detected in an amount over one percent but less than ten percent through transfer reaction to acceptor; ++: a saccharide-transferred product was detected in an amount over ten percent through transfer reaction to acceptor; details: acceptor 1.6%, PINE-DEX #100 donor 4%, one unit/g donor, 30° C., pH 6.0, 24 hours
Reported Property: Product of transferring reaction, Enzyme of Strain N75

| Item Smiles | Experimental Target | Recorded Result |
| --- | --- | --- |
| OC[C@H]1O[C@@H]2O[C@H]3[C@H](O)[C@@H](O)[C@@H](O[C@H]4[C@H](O)[C@@H](O)[C@@H](O[C@H]5[C@H](O)[C@@H](O)[C@@H](O[C@H]6[C@H](O)[C@@H](O)[C@@H](O[C@H]7[C@H](O)[C@@H](O)[C@@H](O[C@H]8[C@H](O)[C@@H](O)[C@@H](O[C@H]1[C@H](O)[C@H]2O)O[C@@H]8CO)O[C@@H]7CO)O[C@@H]6CO)O[C@@H]5CO)O[C@@H]4CO)O[C@@H]3CO | α-isomaltosylglucosaccharide-forming enzyme | − |
